Value source: patent US20220195023A1

Recorded Kd, one value per entry.
Measured on: … (Plasmodium falciparum)
Measurement protocol: BLI, target on sensor
Write the quantity with the unit trailing the number.

Examples with their reported Kd follow.
{"Binder": "AB-007069 (antibody, V domains shown) VH: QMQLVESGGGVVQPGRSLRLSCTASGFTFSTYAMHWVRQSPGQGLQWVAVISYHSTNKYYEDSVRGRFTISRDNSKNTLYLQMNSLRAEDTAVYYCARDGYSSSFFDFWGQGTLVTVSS VL: DIQMTQSPSTLSASVGDRVAITCRASQSISRWLAWYQQQPGKAPKLLMSVASVLESGVPSRFSGSGSGTEFTLTISSLQPDDFATYYCQHYNSYFVTFGQGTKVEIK", "Kd": "27.5 nM"}
{"Binder": "AB-007063 (antibody, V domains shown) VH: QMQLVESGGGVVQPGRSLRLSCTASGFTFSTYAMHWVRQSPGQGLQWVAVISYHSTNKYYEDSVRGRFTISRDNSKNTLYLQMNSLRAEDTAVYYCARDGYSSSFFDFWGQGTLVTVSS VL: DIQMTQSPSTLSASVGDRVAITCRASQSISRWLAWYQQQPGKAPKLLMAGASVLESGVPSRFSGSGSGTEFTLTISSLQPDDFATYYCQHYNSYFVTFGQGTKVEIK", "Kd": "7.03 nM"}
{"Binder": "AB-007049 (antibody, V domains shown) VH: QMQLVESGGGVVQPGRSLRLSCTASGFTFSTYAMHWVRQSPGQGLQWVAVISNHETNKYYEDSVRGRFTISRDNSKNTLYLQMNSLRAEDTAVYYCARDGYSSSFFDFWGQGTLVTVSS VL: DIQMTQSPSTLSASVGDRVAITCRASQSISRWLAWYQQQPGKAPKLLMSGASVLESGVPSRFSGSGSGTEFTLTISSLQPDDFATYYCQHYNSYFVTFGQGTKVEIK", "Kd": "12.3 nM"}
{"Binder": "AB-007040 (antibody, V domains shown) VH: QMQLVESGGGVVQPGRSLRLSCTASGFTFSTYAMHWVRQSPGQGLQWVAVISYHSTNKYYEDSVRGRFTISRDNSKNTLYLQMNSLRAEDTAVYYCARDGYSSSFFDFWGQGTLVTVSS VL: DIQMTQSPSTLSASVGDRVAITCRASQSISRWLAWYQQQPGKAPKLLMSGASVLESGVPSRFSGSGSGTEFTLTISSLQPDDFATYYCQHYNSYYVTFGQGTKVEIK", "Kd": "4.17 nM"}

Consider now this further binder.
Enquiry: For the binder shown here, AB-007035 (antibody, V domains shown) VH: QMQLVESGGGVVQPGRSLRLSCTASGFTFSSYAMHWVRQSPGQGLQWVAVISYHSTNKYYEDSVRGRFTISRDNSKNTLYLQMNSLRAEDTAVYYCARDGYSSSFFDFWGQGTLVTVSS VL: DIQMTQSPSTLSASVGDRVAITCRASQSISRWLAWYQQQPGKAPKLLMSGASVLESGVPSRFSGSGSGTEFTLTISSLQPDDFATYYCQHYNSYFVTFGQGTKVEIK , give the reported Kd.
Return: 2.61 nM
